# Test system: OVCAR-8 ovarian
# experiment: NCI-60 one-dose screen, 48 h
# assay_setup: 10 µM unless noted
The panel holds about 83,000 compounds, 20% with a hit somewhere; the sample as a whole holds those more often. The source made the active and inactive calls. How the source made its calls: active means growth percent below 10; inactive means the rest.
Assign a class; possible classes are active, inactive

{"columns": ["compound", "label_class"],
 "data": [
  ["N#Cc1c(NC(=O)c2ccco2)[n+]([O-])c2cc(Cl)c(Cl)cc2[n+]1[O-]", "inactive"],
  ["O[N+]1=CC=CCC1=S.On1ccccc1=S.[Zn]", "active"],
  ["CC[N+](CCCCCCCCCC[N+](CC)(c1ccccn1)c1ccccn1)(c1ccccn1)c1ccccn1", "active"],
  ["O=c1[nH]cc(Nc2cc(Cl)c3nonc3c2[N+](=O)[O-])c(=O)[nH]1", "inactive"],
  ["O=C(/C=C/c1cccc(Nc2ccnc3cc(Cl)ccc23)c1)c1ccc(Cl)cc1", "inactive"]
]}

Prompt line: Status in this test for COc1cnc2c(c1)C(=O)c1c-2n(CCCN2CCC(O)CC2)c(=O)c2cc(F)ccc12 ?
Response line: active

Prompt line: Status in this test for Cc1ccccc1NC(=O)N/C(N)=N/c1nc2ccccc2s1 ?
Response line: inactive

###

# System: COLO 205 colon
# experiment: NCI-60 one-dose screen, 48 h
# assay_setup: 10 µM unless noted
About 83,000 compounds went through this panel and 20% of them were active in at least one assay; those are over-represented in the sample as a whole. The source made the active and inactive calls. The calls were made as follows: active = growth percent below 10; inactive = the rest.
Assign a class; possible classes are active, inactive

Example entries and their recorded answers appear below.
{"columns": ["compound", "target_entity", "label_class"],
 "data": [
  ["CC(=O)Nc1ccc(C(=O)COc2cccc(/C=C3\\CCc4ccccc4C3=O)c2)cc1", "COLO 205 colon", "inactive"],
  ["CC1CN(/N=C/c2ccc([N+](=O)[O-])o2)C(=N)O1 (stereo not drawn)", "COLO 205 colon", "inactive"],
  ["CC(=O)OCC(=O)[C@@]1(O)CC[C@H]2[C@@H]3CCC4=CC(=O)CC[C@]4(C)[C@@]3(F)[C@@H](O)C[C@@]21C", "COLO 205 colon", "inactive"],
  ["COc1ccc(C2=NN(C(C)=O)C(c3cccc(Nc4ccnc5cc(Cl)ccc45)c3)C2)cc1 (stereo not drawn)", "COLO 205 colon", "inactive"]
]}

Could you now look at the following compound, please?
Prompt line: Status in this test for O=C1C2C(C(=O)N1CC[Se][Se]CCN1C(=O)C3C(C1=O)[C@H]1C=C[C@@H]3C1)[C@H]1C=C[C@@H]2C1 (stereo partly drawn) ?
Response line: active

###

# growth per entry
# System: SNB-19 CNS
# experiment: NCI-60 one-dose screen, 48 h (100 = growth as untreated, 0 = no growth, -100 = all killed)
# assay_setup: 10 µM unless noted
This is part of a sample that, as a whole, favours compounds with a hit. Of some 83,000 tested, about 20% had one in any assay.
Write the number in % without appending the unit.

Before answering, review these 3 worked examples.
{"columns": ["compound", "growth / %"],
 "data": [
  ["CCN(CC)CCNCC(=O)Oc1ccc(/C=C/C(=O)CC(=O)/C=C/c2ccc(OC(=O)CNCCN(CC)CC)c(OC)c2)cc1OC", 22],
  ["CN1C(=O)C(C2=NN(C=O)C(c3ccc(F)cc3)C2)C(=O)N(C)C1=O (stereo not given)", 92.4],
  ["COc1cccc(CCN2C(=O)CCC3=C2CCC3=O)c1", 102]
]}

Prompt line: Can you look up the measured growth of COc1ccc(C2=NN(C=O)C(c3cccc(Nc4ccnc5cc(Cl)ccc45)c3)C2)cc1 (stereo not given) for me?
Response line: 40

Prompt line: Can you look up the measured growth of Cc1ccc(-c2c3c(N)nc(-c4ccncc4)nc3nc3c2c(C)nn3-c2ccccc2)cc1 for me?
Response line: 88.4

###

# Test system: SK-OV-3 ovarian
# experiment: NCI-60 one-dose screen, 48 h
# assay_setup: 10 µM unless noted
Compounds without any hit were thinned out: in the full panel of roughly 83,000, 20% have a hit. Active and inactive are the calls of the source. Rule for the calls: active = growth percent below 10; inactive = the rest.
Assign a class; possible classes are y for active, n for inactive

{"columns": ["compound", "label_class"],
 "data": [
  ["C[C@@H]1CN(c2nc3c(cc2F)c(=O)c(C(=O)O)cn3C(C)(C)C)C[C@H](C)N1", "n"]
]}

Prompt line: Status in this test for O=C1CNc2cc(Cl)ccc2N1 ?
Response line: n

###

# System: OVCAR-3 ovarian
# experiment: NCI-60 one-dose screen, 48 h
# assay_setup: 10 µM unless noted
The panel holds about 83,000 compounds, 20% with a hit somewhere; the sample as a whole holds those more often. Active and inactive are the calls of the source. The calls were made as follows: active = growth percent below 10; inactive = the rest.
Assign a class; possible classes are active, inactive

{"columns": ["compound", "label_class"],
 "data": [
  ["O=C(c1ccc(Cl)cc1)c1ccc(Cl)cc1", "inactive"]
]}

Prompt line: Status in this test for COc1cc(NC(C)CCCN)c2nc(C)ccc2c1Oc1ccc(F)cc1 (stereo not given) ?
Response line: inactive

Prompt line: Status in this test for COc1ccc(-c2cc(-c3nnc(SCC(=O)Nc4ccc(C(C)=O)cc4)n3-c3ccccc3)c3ccccc3n2)cc1OC ?
Response line: inactive

Prompt line: Status in this test for O=C1c2cccc3c([N+](=O)[O-])ccc(c23)C(=O)N1CCCCl ?
Response line: active

Prompt line: Status in this test for C/C(=C\CCc1ccoc1)CC/C=C(\C)CCCN1CCOCC1 ?
Response line: inactive

Prompt line: Status in this test for COC(=O)CC1=C(c2ccc([N+](=O)[O-])cc2)CCC1=O ?
Response line: inactive

Prompt line: Status in this test for O=C1NC(=S)S/C1=C\c1cc(Br)ccc1O ?
Response line: inactive

Prompt line: Status in this test for CCN(CC)CCSc1ncnc2c1cnn2-c1ccc(S(N)(=O)=O)cc1 ?
Response line: inactive

Prompt line: Status in this test for O=C(O)CNC(=O)C1(N2C(=O)c3ccccc3C2=O)CCCC1 ?
Response line: inactive

Prompt line: Status in this test for O=C(CN1CCN(c2ccc(Cl)cc2)CC1)N1CCN(c2nnc(-c3ccccc3)c(-c3ccccc3)n2)CC1 ?
Response line: inactive

###

# Tested on: UACC-257 melanoma
# experiment: NCI-60 one-dose screen, 48 h
# assay_setup: 10 µM unless noted
This is part of a sample that, as a whole, favours compounds with a hit. Of some 83,000 tested, about 20% had one in any assay. Activity calls are given as the source filed them. Rule for the calls: active = growth percent below 10; inactive = the rest.
Assign a class; possible classes are YES for active, NO for inactive

Example entries and their recorded answers appear below.
{"columns": ["molecule", "label_class"],
 "data": [
  ["COc1cnc2c(c1)C(=O)c1c-2n(CCCn2ccnc2)c(=O)c2cc(F)ccc12", "YES"],
  ["O=C(/C=C/c1ccc([N+](=O)[O-])cc1)c1ccc2c3c(cccc13)CC2", "YES"],
  ["COc1ccc(C(=O)COc2cccc(/C=C3\\COc4ccc5ccccc5c4C3=O)c2)cc1", "NO"],
  ["COC(=O)[C@H](Cc1cnc[nH]1)NC(=O)[C@@H](NC(=O)Nc1cc(C(F)(F)F)cc(C(F)(F)F)c1)C(C)C", "YES"],
  ["CC(C)CC1NC(=O)C(CCCN)NC(=O)C(C(C)C)NC(=O)C2CCCN2C(=O)C(Cc2ccccc2)NC(=O)C(CC(C)C)NC(=O)C(CCCN)NC(=O)C(C(C)C)NC(=O)C2CCCN2C(=O)C(Cc2ccccc2)NC1=O (stereo not drawn)", "YES"],
  ["O=C1NC(=O)/C(=C/c2ccc(Cl)cc2Cl)N1", "NO"],
  ["NS(=O)(=O)c1ccc(-n2ncc3c(NC4CCCCC4)ncnc32)cc1", "NO"],
  ["CC(C)C[C@H](NC(=O)/C=C/Cn1ccc2ccccc2c1=O)B(O)O", "NO"],
  ["OC(c1cc(-c2cccc(Cl)c2)nc2ccccc12)C1CCCCN1 (stereo not drawn)", "YES"],
  ["O=C(CSc1nnc(-c2cc(-c3ccccc3)nc3ccccc23)o1)c1ccc(Br)cc1", "NO"]
]}

Prompt line: Status in this test for CC(=O)N1N=C(c2ccc(Nc3nc(NCCO)nc(NCCO)n3)cc2)CC1c1ccc(Cl)cc1 (stereo not drawn) ?
Response line: NO

Prompt line: Status in this test for CC(=O)c1ccc(NS(=O)(=O)c2ccc([N+](=O)[O-])cc2)cc1 ?
Response line: NO

Prompt line: Status in this test for COc1cc(-c2nc3sc4c(c3c(=O)[nH]2)CCCCCC4)cc(OC)c1OC ?
Response line: NO

Prompt line: Status in this test for O=C(/C=C(\Nc1ccccc1)c1ccccc1)c1cn(-c2ccc([N+](=O)[O-])cc2)nn1 ?
Response line: NO

Prompt line: Status in this test for COc1ccc([N+](=O)[O-])c(S(=O)(=O)c2ccc(Cl)cc2)n1 ?
Response line: NO

Prompt line: Status in this test for FC(F)(F)c1cc(-c2nnc3n2N=C(N2CCCC2)CS3)cc(C(F)(F)F)c1 ?
Response line: NO

Prompt line: Status in this test for N/C(=N\c1nc2ccccc2s1)NC(=O)Nc1ccccc1Cl ?
Response line: NO

Prompt line: Status in this test for COc1cc(/C=C/C(=O)CC(=O)/C=C/c2ccc(OC(=O)CCNC34CC5CC(CC(C5)C3)C4)c(OC)c2)ccc1OC(=O)CCNC12CC3CC(CC(C3)C1)C2 ?
Response line: NO

# credit: PubChem BioAssay (NCI)
